test system: UO-31 renal; test: NCI-60 one-dose screen, 48 h; conditions: 10 µM unless noted
The panel holds about 83,000 compounds, 20% with a hit somewhere; the sample as a whole holds those more often. Activity calls are given as the source filed them. How the source made its calls: active means growth percent below 10; inactive means the rest.
Classes used: active, inactive

[[record]]
compound = "CC[C@]1(O)CC2CN(CCc3c([nH]c4ccccc34)[C@@](C(=O)OC)(c3cc4c(cc3OC)N(C=O)[C@H]3[C@@](O)(C(=O)OC)[C@H](OC(C)=O)[C@]5(CC)C=CCN6CC[C@]43[C@@H]65)C2)C1 (some centres not stated)"
category_label = "inactive"

[[record]]
compound = "O=C1/C(=C/c2cccc(OCc3ccccc3)c2)Oc2cc(OCCN3CCCCC3)ccc21"
category_label = "inactive"

[[record]]
compound = "O=C1/C(=C\\c2cn(CC(O)CN3CCCCC3)c3ccccc23)c2ccccc2N1c1c(Cl)cccc1Cl (configuration not stated)"
category_label = "active"

[[record]]
compound = "C=C(C)[C@@H]1CC[C@]2(C(N)=O)CC[C@]3(C)[C@H](CC[C@@H]4[C@@]5(C)C/C(=C/c6cccnc6)[C@H](O)C(C)(C)[C@@H]5CC[C@]43C)[C@@H]12"
category_label = "inactive"

[[record]]
compound = "COc1ccc2[nH]c(C(=O)N3CCN(C(=O)OCc4ccc5c(Br)cc(Br)c(O)c5n4)CC3)cc2c1"
category_label = "active"

[[record]]
compound = "CC(C)=CC/C=C(/C)[C@H]1CC[C@]2(C)[C@@H]1CC[C@@H]1[C@@]3(C)CCCNC(C)(C)[C@@H]3CC[C@]12C"
category_label = "active"

[[record]]
compound = "CN(C)Cc1ccc[nH]1"
category_label = "inactive"

